Assay: Pharmacokinetic analyses
Type: in vivo, beagle dogs
Conditions: beagle, plasma; male dog, intravenous 1 mg/kg
measurement_kind: clearance (mL/min/kg)
Return type: number; implicit unit mL/min/kg.

Field request: clearance | item: `CCN1C(=O)N(c2c(F)c(OC)cc(OC)c2F)Cc2cnc3[nH]c(CN4CCOCC4)cc3c21`
3.05

----------
Molecular target: hERG potassium current (Homo sapiens, UniProt Q12809)
Construct: ChanTest Corporation, Cleveland, OH
Sequence (Q12809 whole entry): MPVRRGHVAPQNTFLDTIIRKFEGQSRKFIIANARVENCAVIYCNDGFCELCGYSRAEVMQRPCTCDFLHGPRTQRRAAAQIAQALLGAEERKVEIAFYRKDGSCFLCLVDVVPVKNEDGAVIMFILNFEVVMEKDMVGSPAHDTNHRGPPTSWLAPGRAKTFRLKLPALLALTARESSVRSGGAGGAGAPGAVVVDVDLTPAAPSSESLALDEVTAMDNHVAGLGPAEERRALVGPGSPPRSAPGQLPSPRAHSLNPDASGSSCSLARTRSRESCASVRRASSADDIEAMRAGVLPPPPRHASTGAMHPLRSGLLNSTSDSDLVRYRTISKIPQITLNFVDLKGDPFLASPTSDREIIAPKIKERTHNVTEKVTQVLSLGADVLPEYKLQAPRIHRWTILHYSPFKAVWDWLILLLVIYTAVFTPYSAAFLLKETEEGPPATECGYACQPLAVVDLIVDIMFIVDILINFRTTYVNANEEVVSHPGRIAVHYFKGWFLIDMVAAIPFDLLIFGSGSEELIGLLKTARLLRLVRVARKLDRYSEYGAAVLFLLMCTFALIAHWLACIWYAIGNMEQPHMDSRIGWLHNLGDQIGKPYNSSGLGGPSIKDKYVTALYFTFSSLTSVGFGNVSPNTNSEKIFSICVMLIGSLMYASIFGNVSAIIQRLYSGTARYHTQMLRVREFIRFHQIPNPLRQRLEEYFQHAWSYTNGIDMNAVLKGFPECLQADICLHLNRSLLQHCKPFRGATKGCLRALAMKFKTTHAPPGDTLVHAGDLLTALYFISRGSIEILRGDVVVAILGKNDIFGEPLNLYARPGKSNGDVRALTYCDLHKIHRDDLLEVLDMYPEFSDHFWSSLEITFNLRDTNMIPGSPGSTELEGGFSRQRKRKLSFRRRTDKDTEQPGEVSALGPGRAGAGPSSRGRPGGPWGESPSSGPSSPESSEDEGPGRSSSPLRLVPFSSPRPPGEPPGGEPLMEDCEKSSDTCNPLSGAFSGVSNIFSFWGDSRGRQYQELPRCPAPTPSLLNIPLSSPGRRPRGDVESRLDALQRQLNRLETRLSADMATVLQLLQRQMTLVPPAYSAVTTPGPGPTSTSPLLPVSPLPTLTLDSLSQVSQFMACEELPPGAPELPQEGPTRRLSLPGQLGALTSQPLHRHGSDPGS
Test: hERG potassium current (ChanTest)
Conditions: estimated; precise IC50 not calculated due to compound insolubility; data provided by ChanTest; read-out: IC50 for the inhibitory effect on hERG potassium current
measurement_kind: IC50

Would you mind telling me what IC50 value was observed for `CCN1C(=O)N(c2c(F)c(OC)cc(OC)c2F)Cc2cnc3[nH]c(CN4CCOCC4)cc3c21` ?
> 8 µM

----------
Target: IGF1R (Homo sapiens)
Sequence (P08069 31-1367, species assumed): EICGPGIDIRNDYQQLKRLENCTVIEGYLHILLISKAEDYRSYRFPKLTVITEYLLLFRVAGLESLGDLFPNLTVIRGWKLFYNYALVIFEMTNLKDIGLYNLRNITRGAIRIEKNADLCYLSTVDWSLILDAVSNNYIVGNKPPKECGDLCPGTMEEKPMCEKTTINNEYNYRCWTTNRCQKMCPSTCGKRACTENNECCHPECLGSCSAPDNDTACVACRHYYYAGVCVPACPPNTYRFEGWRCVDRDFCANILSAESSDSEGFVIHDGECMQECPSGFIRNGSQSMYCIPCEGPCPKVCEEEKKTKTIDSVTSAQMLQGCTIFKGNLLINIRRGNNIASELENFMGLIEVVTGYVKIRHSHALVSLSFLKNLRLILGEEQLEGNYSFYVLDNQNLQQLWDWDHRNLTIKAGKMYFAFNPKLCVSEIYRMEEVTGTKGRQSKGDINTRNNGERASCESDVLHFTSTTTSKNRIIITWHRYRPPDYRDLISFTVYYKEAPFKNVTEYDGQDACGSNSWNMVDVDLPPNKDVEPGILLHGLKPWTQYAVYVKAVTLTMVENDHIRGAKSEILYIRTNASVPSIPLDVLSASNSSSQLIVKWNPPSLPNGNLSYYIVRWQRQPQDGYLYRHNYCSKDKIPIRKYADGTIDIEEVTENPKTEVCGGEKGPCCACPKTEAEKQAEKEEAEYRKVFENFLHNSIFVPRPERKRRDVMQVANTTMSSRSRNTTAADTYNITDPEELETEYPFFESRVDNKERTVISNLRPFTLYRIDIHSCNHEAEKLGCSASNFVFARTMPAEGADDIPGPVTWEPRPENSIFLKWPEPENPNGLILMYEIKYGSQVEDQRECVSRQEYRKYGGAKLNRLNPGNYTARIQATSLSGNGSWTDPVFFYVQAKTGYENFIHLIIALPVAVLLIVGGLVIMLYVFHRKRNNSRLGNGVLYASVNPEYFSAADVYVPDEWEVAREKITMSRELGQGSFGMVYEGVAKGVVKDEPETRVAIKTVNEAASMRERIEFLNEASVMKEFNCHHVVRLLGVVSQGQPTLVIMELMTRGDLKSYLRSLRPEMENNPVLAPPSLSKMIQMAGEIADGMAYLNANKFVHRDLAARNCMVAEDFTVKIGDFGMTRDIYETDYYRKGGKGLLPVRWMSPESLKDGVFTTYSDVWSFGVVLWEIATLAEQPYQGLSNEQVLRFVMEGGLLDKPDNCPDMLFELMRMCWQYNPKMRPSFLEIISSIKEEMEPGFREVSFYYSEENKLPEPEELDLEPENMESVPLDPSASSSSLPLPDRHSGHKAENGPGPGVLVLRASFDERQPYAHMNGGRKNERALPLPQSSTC
measurement_kind: IC50

I'm curious: which IC50 was measured for `CCN1C(=O)N(c2c(F)c(OC)cc(OC)c2F)Cc2cnc3[nH]c(CN4CCOCC4)cc3c21` tested on IGF1R (Homo sapiens)?
> 10 µM

----------
Assay: Plasma protein binding (equilibrium dialysis)
Assay type: in vitro ADME, cynomolgus monkey
Details: pH 7.4, monkey plasma, read-out: PPB (% free)
measurement_kind: fraction unbound at 2 h, 1 μM
Returns: the value as a bare number; no unit string appended.

Form field: reported fraction unbound at 2 h, 1 μM of `CCN1C(=O)N(c2c(F)c(OC)cc(OC)c2F)Cc2cnc3[nH]c(CN4CCOCC4)cc3c21`
0.082

----------
Assay: Pharmacokinetic analyses
Type: in vivo, beagle dogs
Conditions: beagle, plasma; male dog, oral 2 mg/kg
Protocol: The i.v. formulation in rats was 5% dimethylacetamide (DMAC) and 25% sulfobutyl ether β-cyclodextrin in acidified saline (pH 3). The i.v. formulation in dogs and monkeys was 5% DMAC and 20% sulfobutyl ether β-cyclodextrin in saline. The oral formulation in all species was 5% DMAC in 0.5% methylcellulose aqueous solution. […] The plasma was protein precipitated and the diluted supernatant was analyzed using LC/MS/MS. […] The pharmacokinetic parameters were determined using WinNonLin 6.3.
measurement_kind: bioavailability (%)
Lab book: enter the figure in %, no units written.

Fill blank: measured bioavailability of the compound `CCN1C(=O)N(c2c(F)c(OC)cc(OC)c2F)Cc2cnc3[nH]c(CN4CCOCC4)cc3c21` is ____.
98

----------
Molecular target: UniProt Q9H4B4
Sequence (Q9H4B4 whole entry, species assumed): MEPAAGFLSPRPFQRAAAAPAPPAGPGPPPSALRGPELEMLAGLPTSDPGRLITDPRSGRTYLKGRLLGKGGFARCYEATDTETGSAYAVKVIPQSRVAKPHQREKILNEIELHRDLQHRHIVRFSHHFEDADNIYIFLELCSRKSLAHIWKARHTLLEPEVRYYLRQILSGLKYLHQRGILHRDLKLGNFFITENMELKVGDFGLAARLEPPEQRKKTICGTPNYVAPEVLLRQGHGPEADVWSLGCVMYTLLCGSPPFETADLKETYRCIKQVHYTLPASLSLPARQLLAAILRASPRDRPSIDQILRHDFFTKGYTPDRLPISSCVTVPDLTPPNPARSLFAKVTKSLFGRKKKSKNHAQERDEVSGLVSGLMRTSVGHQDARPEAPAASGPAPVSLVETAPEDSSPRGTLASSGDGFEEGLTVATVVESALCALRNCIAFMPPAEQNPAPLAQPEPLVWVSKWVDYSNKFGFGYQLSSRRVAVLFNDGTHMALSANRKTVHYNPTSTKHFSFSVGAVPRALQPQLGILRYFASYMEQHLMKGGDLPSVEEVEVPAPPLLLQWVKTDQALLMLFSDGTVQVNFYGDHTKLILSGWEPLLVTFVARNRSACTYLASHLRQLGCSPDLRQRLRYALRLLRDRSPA
measurement_kind: IC50

Reported IC50 for UniProt Q9H4B4, given `CCN1C(=O)N(c2c(F)c(OC)cc(OC)c2F)Cc2cnc3[nH]c(CN4CCOCC4)cc3c21` ?
> 10 µM
